Test system: SNB-19
Assay procedure: NCI tumour cell line growth inhibition, 48 h
Active and inactive are the calls of the source. No stated cut-off is given here; in the data, active = GI50 up to about 1.1 µM and inactive = higher.
Endpoint label: GI50

>>> observed("CCCCOC(C)(C)/C=C/C(O)[C@](C)(O)[C@H]1[C@H](O)C[C@@]2(C)[C@@H]3CCc4c(cc(OC5OC(CO)C(O)C(O)C5O)c(O)c4C)C3(C)C(=O)C[C@]12C (stereo partly drawn)")
"> 100 µM (inactive)"
>>> observed("COc1cc(C(=C2SCCS2)c2nccc3cc(OC)c(OC)cc23)c([N+](=O)[O-])cc1OC")
"> 100 µM (inactive)"
>>> observed("O=C(CC1Sc2ccccc2NC1=O)Nc1ccc(Cl)cc1 (stereo not drawn)")
"> 100 µM (inactive)"
>>> observed("NC(=O)c1cc([N+](=O)[O-])cc([N+](=O)[O-])c1 [NITROMIDE]")
"> 100 µM (inactive)"
>>> observed("Cc1cc2c(C(C)C)c(O)c(O)c(C=O)c2c(O)c1-c1c(C)cc2c(C(C)C)c(O)c(O)c(C=O)c2c1O [GOSSYPOL]")
"3.86 µM (inactive)"
>>> observed("CCCCC(=O)/C=c1/cc(C)[nH]c2cccc3cnn1c32")
"> 100 µM (inactive)"
>>> observed("Cc1ccnn1CCc1ccc(Cl)cc1Cl")
"28.6 µM (inactive)"
>>> observed("CC(=O)O[C@H]1CCC2[C@@H]3CCC4=C(O)C(=O)C(C#N)C[C@]4(C)C3CC[C@@]21C (stereo partly drawn)")
"45.1 µM (inactive)"
>>> observed("O=S(=O)(Oc1ccc2ccccc2c1-c1c(OS(=O)(=O)C(F)(F)F)ccc2ccccc12)C(F)(F)F")
"> 100 µM (inactive)"
>>> observed("CC(CN1CCN(CC(C)Nc2ccnc3cc(Cl)ccc23)CC1)Nc1ccnc2cc(Cl)ccc12 (stereo not drawn)")
"29 µM (inactive)"
>>> observed("CC(C)=CC(=O)N1CCN(C(=O)C=C(C)C)CC1")
"> 100 µM (inactive)"
>>> observed("O=C1Nc2ccccc2C(=O)/C1=C/NC(=S)NCCc1ccccc1")
"> 100 µM (inactive)"
>>> observed("OCCN1c2ccccc2Sc2ccccc21")
"> 10 µM (inactive)"
>>> observed("CC1=C(C2=C(C)C(=O)c3c(c(C=O)c(O)c(O)c3C(C)C)C2=O)C(=O)c2c(C=O)c(O)c(O)c(C(C)C)c2C1=O [GOSSYPOLONE]")
"4.44 µM (inactive)"
>>> observed("CC1(C)C=CC(=O)C(O)C(C)(C)C1=O (stereo not drawn)")
"> 100 µM (inactive)"
>>> observed("Oc1nc(-c2ccc3ccccc3c2)nc2ccccc12")
"19.1 µM (inactive)"
>>> observed("COC(=O)CNS(=O)(=O)c1ccc(-c2c3nc(c(-c4ccc(S(=O)(=O)NCC(=O)OC)cc4)c4ccc([nH]4)c(-c4ccc(S(=O)(=O)NCC(=O)OC)cc4)c4nc(c(-c5ccc(S(=O)(=O)NCC(=O)OC)cc5)c5ccc2[nH]5)C=C4)C=C3)cc1")
"> 100 µM (inactive)"
>>> observed("C=C(C)C1CCC(C(=O)O)CC1 (stereo not drawn)")
"> 100 µM (inactive)"
>>> observed("CC(=O)C(C(C)=O)[C@H]1OC(C)(C)O[C@H]1[C@H]1COC(C)(C)O1")
"41.6 µM (inactive)"
>>> observed("COc1ccc(C(SCCO)(c2ccccc2)c2ccc(OC)cc2)cc1")
"8.26 µM (inactive)"
>>> observed("CC(NO)/C(=N/O)c1ccco1 (stereo not drawn)")
"> 10 µM (inactive)"
>>> observed("Cc1nc2ccccc2n1CCc1nc2ccccc2[nH]1")
"> 100 µM (inactive)"
>>> observed("CC(=NNC(=S)Nc1ccccc1C)c1cccc(C(C)=NNC(=S)Nc2ccccc2C)n1")
"> 100 µM (inactive)"
>>> observed("CC(=O)OC1C(O)COC(O[C@H]2CC[C@]34C[C@]35CC[C@]3(C)C([C@@]6(C)CC[C@@H](C(C)(C)O)O6)[C@@H](O)C[C@@]3(C)C5C[C@H](OC3OCC(O)C(O)C3O)[C@H]4C2(C)C)C1OC1OCC(O)C(O)C1O (stereo partly drawn)")
"> 100 µM (inactive)"
>>> observed("O=C1N=CN=C2C=CC(Cl)=C(I)C12 (stereo not drawn)")
"47.9 µM (inactive)"
>>> observed("Clc1cc2ns[s+]c2cc1Cl")
"> 74.8 µM (inactive)"
>>> observed("COC(=O)[C@]1(C)CCC[C@@]2(C)C1CCC1=CC3(C(C)C)CCC12OO3 (stereo partly drawn)")
"> 100 µM (inactive)"
>>> observed("CN(C)CC/C(=N\\Nc1ccc(Cl)c(Cl)c1)c1ccccc1")
"3.49 µM (inactive)"
>>> observed("CC(C)(C)c1ccc(C(C)(C)C)c(N2C(=O)C3ON=C(c4ccc([N+](=O)[O-])cc4)C3C2=O)c1 (stereo not drawn)")
"> 25 µM (inactive)"
>>> observed("Cc1cc(C)n(-c2nc3ccccc3c(=O)n2-c2ccccc2)n1")
"> 100 µM (inactive)"
>>> observed("CS(=O)(=O)OCCCNCCCOS(C)(=O)=O")
"1270 µM (inactive)"
>>> observed("O=S(=O)(O)c1ccc2cc(/N=N\\c3cc(S(=O)(=O)O)c4cccnc4c3O)ccc2c1")
"> 100 µM (inactive)"
>>> observed("O=C1Cc2c([nH]c3cc(Br)ccc23)-c2ccccc2N1")
"21.9 µM (inactive)"
>>> observed("O=C(N/C(=C/c1ccc(Cl)cc1)c1nc2ccccc2c(=O)n1Nc1ccc([N+](=O)[O-])cc1[N+](=O)[O-])c1ccccc1")
"> 100 µM (inactive)"
>>> observed("CCOC(=O)C1=[N+]([O-])OC2=C(O)CCCC21 (stereo not drawn)")
"> 100 µM (inactive)"
>>> observed("CCCN(CCCCC(NC(C)=O)C(=O)NCc1ccccc1)C(=O)N(C)N=O (stereo not drawn)")
"> 100 µM (inactive)"
>>> observed("CN(C)c1nc(-c2ccccc2)c(C(=O)c2c[nH]c3ccccc23)s1")
"14.8 µM (inactive)"
>>> observed("CCOC(=O)C1S/C(=N\\c2ccc(Cl)cc2Cl)N=C1C (stereo not drawn)")
"47.5 µM (inactive)"
